These measurements were taken from patent US10172858B2.

pIC50 by entry:
assay.target: UniProt O00329
Sequence (O00329 whole entry, species assumed): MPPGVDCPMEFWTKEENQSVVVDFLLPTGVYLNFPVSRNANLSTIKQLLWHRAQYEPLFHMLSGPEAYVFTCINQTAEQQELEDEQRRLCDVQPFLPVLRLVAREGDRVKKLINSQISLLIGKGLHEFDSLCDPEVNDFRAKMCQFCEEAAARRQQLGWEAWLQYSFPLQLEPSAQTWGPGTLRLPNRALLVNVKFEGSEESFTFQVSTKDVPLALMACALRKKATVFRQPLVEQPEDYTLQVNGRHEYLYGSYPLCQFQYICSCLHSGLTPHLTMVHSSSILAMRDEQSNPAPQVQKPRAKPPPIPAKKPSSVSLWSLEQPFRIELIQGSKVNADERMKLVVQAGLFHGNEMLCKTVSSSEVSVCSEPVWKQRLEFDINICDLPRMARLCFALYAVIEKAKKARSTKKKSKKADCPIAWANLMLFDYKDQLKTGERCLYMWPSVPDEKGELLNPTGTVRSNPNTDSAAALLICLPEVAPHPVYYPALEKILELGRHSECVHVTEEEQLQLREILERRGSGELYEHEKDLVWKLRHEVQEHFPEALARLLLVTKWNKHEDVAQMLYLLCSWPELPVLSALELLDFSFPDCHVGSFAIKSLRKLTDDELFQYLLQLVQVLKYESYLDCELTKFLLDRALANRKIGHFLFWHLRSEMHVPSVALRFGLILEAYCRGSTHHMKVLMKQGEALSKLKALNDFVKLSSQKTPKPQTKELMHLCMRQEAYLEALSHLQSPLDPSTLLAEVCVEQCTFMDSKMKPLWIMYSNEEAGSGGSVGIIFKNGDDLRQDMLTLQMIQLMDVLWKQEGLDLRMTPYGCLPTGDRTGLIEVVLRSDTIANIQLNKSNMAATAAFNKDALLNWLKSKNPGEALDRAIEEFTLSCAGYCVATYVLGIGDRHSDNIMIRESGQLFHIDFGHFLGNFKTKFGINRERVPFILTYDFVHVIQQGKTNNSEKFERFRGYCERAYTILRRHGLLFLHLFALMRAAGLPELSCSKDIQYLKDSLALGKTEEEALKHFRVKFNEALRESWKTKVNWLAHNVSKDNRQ
Sequence (P27986 whole entry partner, species assumed): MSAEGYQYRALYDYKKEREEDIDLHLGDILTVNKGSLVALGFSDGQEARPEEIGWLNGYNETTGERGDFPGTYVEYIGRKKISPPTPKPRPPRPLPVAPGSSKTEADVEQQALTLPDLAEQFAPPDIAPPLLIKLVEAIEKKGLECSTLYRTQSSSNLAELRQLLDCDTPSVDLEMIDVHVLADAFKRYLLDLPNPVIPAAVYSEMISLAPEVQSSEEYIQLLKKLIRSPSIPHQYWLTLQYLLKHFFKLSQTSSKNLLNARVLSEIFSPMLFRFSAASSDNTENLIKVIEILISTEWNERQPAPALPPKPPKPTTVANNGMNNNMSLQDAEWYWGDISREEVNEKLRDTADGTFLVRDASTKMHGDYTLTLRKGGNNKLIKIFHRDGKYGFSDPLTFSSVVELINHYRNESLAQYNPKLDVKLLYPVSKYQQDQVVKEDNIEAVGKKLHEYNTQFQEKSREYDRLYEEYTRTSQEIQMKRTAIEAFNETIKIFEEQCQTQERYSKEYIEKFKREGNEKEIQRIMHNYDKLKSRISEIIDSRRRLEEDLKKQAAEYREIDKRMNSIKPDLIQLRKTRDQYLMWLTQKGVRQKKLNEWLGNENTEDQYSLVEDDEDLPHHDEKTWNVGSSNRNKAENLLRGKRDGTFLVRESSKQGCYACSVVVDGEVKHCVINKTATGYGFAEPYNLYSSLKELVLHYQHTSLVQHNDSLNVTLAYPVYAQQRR
assay.protocol: PI3K δ kinase assay
Format: biochemical
pIC50: −log10 of the molar value.

The cases that follow already have their pIC50 on record.
[[record]]
smiles_structure = "Cc1nccn1CCn1nc(-c2cc3cc(O)ccc3[nH]2)c2c(N)ncnc21"
property_name = "pIC50"
reported = "< 6.30"

[[record]]
smiles_structure = "CC(=O)N1CCC(n2nc(-c3cc4c(Cl)ccc(O)c4[nH]3)c3c(N)ncnc32)CC1"
property_name = "pIC50"
reported = "> 6.30"


Recorded pIC50 (compound CC(C)N1CCC(n2nc(-c3cc4c(Cl)ccc(O)c4[nH]3)c3c(N)ncnc32)CC1 ): < 6.30

The compound listed as COCCn1nc(-c2cc3cc(O)ccc3[nH]2)c2c(N)ncnc21 has a reported pIC50 of < 6.30
